molecular target: CBR2 (Homo sapiens)
Sequence (P34972 whole entry): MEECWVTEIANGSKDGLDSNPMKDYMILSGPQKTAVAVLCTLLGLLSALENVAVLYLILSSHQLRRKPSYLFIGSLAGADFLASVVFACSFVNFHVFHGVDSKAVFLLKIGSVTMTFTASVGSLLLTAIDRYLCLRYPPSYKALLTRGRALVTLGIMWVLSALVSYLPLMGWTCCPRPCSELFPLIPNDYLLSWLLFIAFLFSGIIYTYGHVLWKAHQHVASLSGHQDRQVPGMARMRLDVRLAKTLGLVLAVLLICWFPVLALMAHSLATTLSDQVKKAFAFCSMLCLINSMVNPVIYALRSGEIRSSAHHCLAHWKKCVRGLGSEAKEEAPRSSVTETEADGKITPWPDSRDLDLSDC
assayEndpoint: pKi
Scale: negative log10 of molar concentration, which is what pKi denotes.

Item Cc1s/c(=N\C(=O)C2C(C)(C)C2(C)C)n(CCCCF)c1C ; assay system CBR2 (Homo sapiens); pKi reported as 9.40

====

molecular target: CBR2 (Homo sapiens)
assayEndpoint: pKd
Scale: negative log10 of molar concentration, which is what pKd denotes.

Item [2H]C([2H])([18F])C([2H])([2H])C([2H])([2H])C([2H])([2H])n1c(C)c(C)s/c1=N\C(=O)C1C(C)(C)C1(C)C [[^18F]JHU94620-D8] ; assay system CBR2 (Homo sapiens); pKd reported as 8.57
